The following compounds are listed with their measured inhibition values.
Biological target: Non-receptor tyrosine-protein kinase TNK1 (Homo sapiens) (UniProt Q13470)
Sequence (Q13470 whole entry): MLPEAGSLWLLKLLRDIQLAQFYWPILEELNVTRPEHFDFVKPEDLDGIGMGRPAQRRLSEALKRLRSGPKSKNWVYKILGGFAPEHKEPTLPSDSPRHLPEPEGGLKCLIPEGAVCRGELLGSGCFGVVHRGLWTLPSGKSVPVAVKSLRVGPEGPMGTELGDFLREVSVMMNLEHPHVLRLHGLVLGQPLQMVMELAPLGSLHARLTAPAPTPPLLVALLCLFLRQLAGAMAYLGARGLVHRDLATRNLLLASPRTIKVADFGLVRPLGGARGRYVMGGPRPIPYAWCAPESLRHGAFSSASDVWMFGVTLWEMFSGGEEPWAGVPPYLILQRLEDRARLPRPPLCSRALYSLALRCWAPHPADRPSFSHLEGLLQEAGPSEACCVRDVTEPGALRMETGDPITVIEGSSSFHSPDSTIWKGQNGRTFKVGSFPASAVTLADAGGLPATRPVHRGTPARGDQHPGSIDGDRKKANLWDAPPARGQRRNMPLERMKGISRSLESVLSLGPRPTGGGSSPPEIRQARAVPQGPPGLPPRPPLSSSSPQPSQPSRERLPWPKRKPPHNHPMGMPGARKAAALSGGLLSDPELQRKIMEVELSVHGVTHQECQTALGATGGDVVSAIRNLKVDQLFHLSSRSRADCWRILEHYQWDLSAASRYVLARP
Conditions: at 1 µM
Value expressed in %; do not type the unit.

Guide cases for inhibition, answers given:
[O-][S+]1CCN(Cc2ccc(-c3ccc4ncnc(Nc5ccc(OCc6ccccc6)c(Cl)c5)c4c3)o2)CC1 | 9.61
CC(C)c1ccc2c(c1)NC(=O)/C2=N/Nc1ccc(S(N)(=O)=O)cc1 | 9.9
O=S(=O)(CCOCc1ccc(-c2ccc3ncnc(Nc4ccc(OCc5cccc(F)c5)c(Cl)c4)c3c2)o1)c1ccccc1 | 5.35
CN(C)c1cc2c(Nc3ccc4c(cnn4Cc4ccccc4)c3)ncnc2cn1 | 14.7
COc1cccc(-n2nc(C)c3c(N/N=C(\C)c4ccncc4)ncnc32)c1 | 0.13
NS(=O)(=O)c1ccc(-c2cc3ccncc3cc2OCc2ccccc2)cc1 | 16
NS(=O)(=O)c1cccc(Nc2cc(-c3ccc(F)cc3)n[nH]2)c1 | 16.2
CCn1c(-c2nonc2N)nc2c(C#CC(C)(C)O)nc(OCCNC)cc21 | 3.22

Please provide the recorded inhibition for COc1cc2ncnc(Nc3ccc(C)c(O)c3)c2cc1OC , tested on Non-receptor tyrosine-protein kinase TNK1 (Homo sapiens) (UniProt Q13470).
23.8

Please provide the recorded inhibition for CS(=O)(=O)Nc1cccc(-c2ccc3c(NC(=O)C4CC4)n[nH]c3c2)c1 , tested on Non-receptor tyrosine-protein kinase TNK1 (Homo sapiens) (UniProt Q13470).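 Note: values are averaged percent inhibition of TNK1, compounds from the GSK published kinase inhibitor set.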
-6.75

* * *

Target: MAP/microtubule affinity-regulating kinase 3 (Homo sapiens);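 note: mean percent inhibition of MARK3 kinase activity, measured within the GSK PKIS screening panel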
Conditions: at 0.1 µM
observable: inhibition (%)
Value expressed in %; do not type the unit.

Guide cases for inhibition, answers given:
Oc1cccc(-c2nc(-c3ccccc3)[nH]c2-c2ccncc2)c1 | 3.78
COC(=O)c1cncc(/C=C/c2c(C)cc(O)cc2C)c1 | 2.68
CCn1c(-c2nonc2N)nc2c(C#CC(C)(C)O)nc(OCCNC)cc21 | 0.62
c1ccc(Cc2nc3ccc(Nc4ncnc5ccccc45)cc3[nH]2)cc1 | 1.67

# lookup: inhibition of NS(=O)(=O)c1ccc(-c2cc3ccncc3cc2OCc2ccccc2)cc1
-0.26

* * *

Target: 3-phosphoinositide-dependent protein kinase 1 (Homo sapiens) (UniProt O15530);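 note: values are mean inhibition of PDK1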
Sequence (whole entry): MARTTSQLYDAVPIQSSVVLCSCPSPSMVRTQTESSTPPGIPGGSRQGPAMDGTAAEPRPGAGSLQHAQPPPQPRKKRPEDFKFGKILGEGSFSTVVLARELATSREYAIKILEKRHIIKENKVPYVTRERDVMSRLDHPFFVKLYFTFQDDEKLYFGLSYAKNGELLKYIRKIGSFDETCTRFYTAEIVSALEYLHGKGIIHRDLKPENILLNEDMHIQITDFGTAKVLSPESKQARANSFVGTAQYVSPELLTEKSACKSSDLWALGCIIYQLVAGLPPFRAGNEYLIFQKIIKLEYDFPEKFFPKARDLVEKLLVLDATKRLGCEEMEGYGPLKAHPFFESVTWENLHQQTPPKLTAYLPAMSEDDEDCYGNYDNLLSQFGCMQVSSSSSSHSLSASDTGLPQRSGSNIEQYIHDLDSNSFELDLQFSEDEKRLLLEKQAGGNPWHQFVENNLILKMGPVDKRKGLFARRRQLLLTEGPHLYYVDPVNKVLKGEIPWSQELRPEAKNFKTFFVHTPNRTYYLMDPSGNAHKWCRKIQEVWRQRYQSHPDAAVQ
Details: at 0.1 µM
observable: inhibition (%)
Value expressed in %; do not type the unit.

CN(C)C(=O)O[C@H]1CN[C@H](C#Cc2cc3ncnc(Nc4ccc(OCc5cccc(F)c5)c(Cl)c4)c3s2)C1 | 1.92
FC(F)(F)c1ccc(-c2nn3ncccc3c2-c2ccnc(Nc3ccc4c(c3)OCCO4)n2)cc1 | 1.11
CC(C)c1ccc2c(c1)NC(=O)/C2=N/Nc1ccc(S(N)(=O)=O)cc1 | 0.82

# lookup: inhibition of NS(=O)(=O)c1cccc(-c2cc3ccncc3cc2OCc2ccccc2)c1
0.97

# lookup: inhibition of CCS(=O)(=O)c1ccc(OC)c(Nc2nccc(N(C)c3ccc4c(C)n[nH]c4c3)n2)c1
-0.7

# lookup: inhibition of Cc1ccc2c(-c3ccnc(Nc4cccc(C(F)(F)F)c4)n3)c(-c3ccccc3)nn2n1
0.65

# lookup: inhibition of COC(=O)c1ccc2c(c1)C(=Cc1cc(Br)c(O)c(Br)c1)C(=O)N2
-0.14

# lookup: inhibition of CS(=O)(=O)CCNCc1nc(-c2ccc3ncnc(Nc4ccc(OCc5cccc(C(F)(F)F)c5)cc4)c3c2)cs1
0.07

# lookup: inhibition of N#Cc1c(NC(=O)c2ccccc2F)sc2c1CCCC2
-1.52

* * *

The following compounds are listed with their measured inhibition values.
Tested on: Mast/stem cell growth factor receptor Kit (Homo sapiens), P10721 [D816V]
Sequence (P10721 whole entry D816V): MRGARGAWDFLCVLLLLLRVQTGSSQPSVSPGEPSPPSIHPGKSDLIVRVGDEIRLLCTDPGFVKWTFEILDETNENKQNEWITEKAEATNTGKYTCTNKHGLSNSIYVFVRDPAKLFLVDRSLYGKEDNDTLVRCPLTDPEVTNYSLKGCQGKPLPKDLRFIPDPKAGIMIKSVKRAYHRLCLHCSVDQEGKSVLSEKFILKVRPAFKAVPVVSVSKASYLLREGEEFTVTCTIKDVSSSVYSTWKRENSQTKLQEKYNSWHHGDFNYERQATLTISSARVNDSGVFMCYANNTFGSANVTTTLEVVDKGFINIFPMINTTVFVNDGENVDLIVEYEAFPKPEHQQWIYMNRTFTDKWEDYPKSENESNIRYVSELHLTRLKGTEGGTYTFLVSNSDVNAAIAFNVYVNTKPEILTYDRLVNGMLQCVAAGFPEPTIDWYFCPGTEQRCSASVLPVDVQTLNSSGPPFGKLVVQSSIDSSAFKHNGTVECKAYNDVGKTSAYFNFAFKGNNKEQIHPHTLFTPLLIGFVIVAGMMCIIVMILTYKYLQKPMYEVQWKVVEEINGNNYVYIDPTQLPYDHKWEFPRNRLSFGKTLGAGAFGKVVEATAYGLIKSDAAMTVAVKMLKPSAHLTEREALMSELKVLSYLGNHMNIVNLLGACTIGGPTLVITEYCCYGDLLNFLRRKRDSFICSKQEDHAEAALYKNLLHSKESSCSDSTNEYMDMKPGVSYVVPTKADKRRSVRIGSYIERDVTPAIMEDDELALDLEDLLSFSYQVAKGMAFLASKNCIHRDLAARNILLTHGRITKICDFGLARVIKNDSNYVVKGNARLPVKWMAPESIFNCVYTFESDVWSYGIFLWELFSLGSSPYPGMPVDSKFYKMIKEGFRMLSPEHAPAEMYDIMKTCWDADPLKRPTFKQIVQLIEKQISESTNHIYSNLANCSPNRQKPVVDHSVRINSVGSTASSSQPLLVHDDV
Details: at 1 µM
Value expressed in %; do not type the unit.

Guide cases for inhibition, answers given:
CN(C)C(=O)O[C@@H]1CN[C@@H](C#Cc2cc3ncnc(Nc4ccc(OCc5cccc(F)c5)c(Cl)c4)c3s2)C1 | -2.75
COc1cc(Nc2nccc(-c3cnn4ncccc34)n2)cc(OC)c1 | 9.04
COc1cc2ncn(-c3cc(OCc4ccccc4S(C)(=O)=O)c(C#N)s3)c2cc1OC | 5.22
Nc1nccc(C#Cc2cncnc2Nc2ccc(OCc3cccc(F)c3)c(Cl)c2)n1 | 2.1

For the next question, use this compound.
# lookup: inhibition of C[C@@H](Oc1cc(-n2cnc3ccc(OCC4CCN(C)CC4)cc32)sc1C(N)=O)c1ccccc1C(F)(F)F
-1.63

* * *

Molecular target: 5'-AMP-activated protein kinase catalytic subunit alpha-1 (Homo sapiens)
Settings: at 1 µM
Classify by measured inhibition: TRUE if it is equal to or exceeds 4%, FALSE if it is smaller.

Would you say O=C1Nc2ccccc2/C1=C/Nc1ccc2[nH]c(=O)[nH]c2c1 shows inhibition at minimum 4%?
TRUE

Would you say C[C@@H](Oc1cc(-n2cnc3ccc(OC[C@@H](O)CO)cc32)sc1C(N)=O)c1ccccc1Cl shows inhibition at minimum 4%?
TRUE

Would you say CCn1c(-c2nonc2N)nc2ccc(F)cc21 shows inhibition at minimum 4%?
TRUE

Would you say Cc1ccc2c(-c3ccnc(Nc4ccc5c(c4)OCCO5)n3)c(-c3ccc(C(F)(F)F)cc3)nn2n1 shows inhibition at minimum 4%?
FALSE

Would you say NS(=O)(=O)c1ccc(NC=C2C(=O)Nc3ccc4ncsc4c32)cc1 shows inhibition at minimum 4%?
TRUE

Would you say CC(C)c1ccc2c(c1)NC(=O)/C2=N/Nc1ccc(S(N)(=O)=O)cc1 shows inhibition at minimum 4%?
FALSE

Would you say CC(C)c1ccc(Nc2nccc(-c3cnn4ncccc34)n2)cc1 shows inhibition at minimum 4%?
FALSE

Would you say [O-][S+]1CCN(Cc2ccc(-c3ccc4ncnc(Nc5ccc(OCc6ccccc6)c(Cl)c5)c4c3)o2)CC1 shows inhibition at minimum 4%?
FALSE

Would you say NS(=O)(=O)c1ccc(Nc2cc(-c3cccc(O)c3)n[nH]2)cc1 shows inhibition at minimum 4%?
TRUE

Would you say CCOc1nccc2c1nc(-c1nonc1N)n2CC shows inhibition at minimum 4%?
TRUE

* * *

Target: Serine/threonine-protein kinase Sgk2 (Homo sapiens)
Conditions: at 1 µM
Description: GSK_PKIS: SGK2 mean inhibition at 1 uM [Nanosyn]
observable: inhibition (%)
Value expressed in %; do not type the unit.

Guide cases for inhibition, answers given:
C[C@@H](Oc1cc(-n2cnc3ccc(OCC4CCN(C)CC4)cc32)sc1C(N)=O)c1ccccc1C(F)(F)F | -0.14
Cc1ccc2c(c1)/C(=N/Nc1ccc(S(N)(=O)=O)cc1)C(=O)N2 | 0.76
COc1ccc(-c2nn3ncccc3c2-c2ccnc(Nc3cccc(C(F)(F)F)c3)n2)cc1 | 4.94

For the next question, use this compound.
# lookup: inhibition of COc1cccc(-n2ncc3c(N/N=C/c4ccc(C)cc4)ncnc32)c1
2.8

* * *

The following compounds are listed with their measured inhibition values.
Target: Serine/threonine-protein kinase Sgk2 (Homo sapiens)
Settings: at 0.1 µM
Value expressed in %; do not type the unit.

COc1cccc(-n2nc(C)c3c(N/N=C(\C)c4ccncc4)ncnc32)c1 | 1.28
Cc1ccc(NC(=O)CC2CC2)cc1-c1ccc(C(=O)NCC2CC2)cc1 | 4.31
CS(=O)(=O)CCNCc1nc(-c2ccc3ncnc(Nc4ccc(OCc5cccc(C(F)(F)F)c5)cc4)c3c2)cs1 | 3.52

For the next question, use this compound.
# lookup: inhibition of CCS(=O)(=O)c1ccc(OC)c(Nc2nccc(N(C)c3ccc4c(C)n[nH]c4c3)n2)c1
4.15

* * *

Molecular target: 5'-AMP-activated protein kinase catalytic subunit alpha-1 (Homo sapiens) (UniProt Q13131);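 note: mean percent inhibition of the AMPK A1B1G1 complex (alpha1 beta1 gamma1) in the GSK PKIS kinase inhibitor screen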
Sequence (Q13131 whole entry, looked up): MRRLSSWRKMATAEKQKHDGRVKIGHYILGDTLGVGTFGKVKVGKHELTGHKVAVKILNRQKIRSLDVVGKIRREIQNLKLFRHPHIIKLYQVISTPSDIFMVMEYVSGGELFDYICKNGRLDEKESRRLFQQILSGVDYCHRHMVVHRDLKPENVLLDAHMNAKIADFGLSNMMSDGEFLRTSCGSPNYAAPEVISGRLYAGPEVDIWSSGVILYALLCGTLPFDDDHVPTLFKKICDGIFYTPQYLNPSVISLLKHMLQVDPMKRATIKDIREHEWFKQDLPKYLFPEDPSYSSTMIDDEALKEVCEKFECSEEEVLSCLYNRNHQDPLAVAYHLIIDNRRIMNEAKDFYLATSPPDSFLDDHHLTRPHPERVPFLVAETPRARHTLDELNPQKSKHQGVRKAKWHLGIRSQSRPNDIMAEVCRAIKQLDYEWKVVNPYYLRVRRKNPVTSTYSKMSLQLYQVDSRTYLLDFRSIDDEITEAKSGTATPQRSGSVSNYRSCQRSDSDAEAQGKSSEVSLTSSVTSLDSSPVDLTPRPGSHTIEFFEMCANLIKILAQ
Conditions: at 1 µM
observable: inhibition

NS(=O)(=O)c1cccc(Nc2cc(-c3ccc(F)cc3)n[nH]2)c1 | 14.4%
Nc1nccc(-c2c(-c3ccc(F)cc3)nn3cc(C(F)(F)F)ccc23)n1 | -0.36%
CS(=O)(=O)CCNCc1nc(-c2ccc3ncnc(Nc4ccc(OCc5cccc(C(F)(F)F)c5)cc4)c3c2)cs1 | 2.03%
NC(=O)c1sc(-n2cnc3ccccc32)cc1OCc1ccccc1Br | 4.09%

For the next question, use this compound.
# lookup: inhibition of Oc1cccc(-c2nc(-c3ccccc3)[nH]c2-c2ccncc2)c1
3.13%
